Assay: Cytotoxicity against mouse C2C12 cells assessed as inhibition of cell proliferation at 10^2 umol/L after 72 hrs by MTT assay relative to control
Format: cell-based
metric: inhibition at 72 h, 100 umol/L (%)
Reply numerically in %, unit not repeated.

In: What inhibition at 72 h, 100 umol/L value was documented for this molecule, Cc1ncc([N+](=O)[O-])n1CC(O)CNC1CCN(c2c(F)cc3c(=O)c(C(=O)O)cn(C4CC4)c3c2Cl)C1 (stereo unspecified) ?
Out: 58.2

====

Experiment: Cytotoxicity against HEK293 cells assessed as inhibition of cell proliferation at 3 x 10^-2 umol/L after 72 hrs by MTT assay relative to control
Type: cell-based
Details: human
metric: inhibition at 72 h, 0.03 umol/L (%)
Reply numerically in %, unit not repeated.

In: What inhibition at 72 h, 0.03 umol/L value was documented for this compound, Cc1ncc([N+](=O)[O-])n1CC(O)CNC1CCN(c2c(F)cc3c(=O)c(C(=O)O)cn(C4CC4)c3c2Cl)C1 (stereo unspecified) ?
Out: 1.5
